# STUDY TARGET: human brain-derived dopamine D4 receptor (Homo sapiens, UniProt P21917)
# Construct: expressed in transfected cells; host or cells: CHO (CHO-K1) or HEK293 cells
# Sequence (P21917 whole entry): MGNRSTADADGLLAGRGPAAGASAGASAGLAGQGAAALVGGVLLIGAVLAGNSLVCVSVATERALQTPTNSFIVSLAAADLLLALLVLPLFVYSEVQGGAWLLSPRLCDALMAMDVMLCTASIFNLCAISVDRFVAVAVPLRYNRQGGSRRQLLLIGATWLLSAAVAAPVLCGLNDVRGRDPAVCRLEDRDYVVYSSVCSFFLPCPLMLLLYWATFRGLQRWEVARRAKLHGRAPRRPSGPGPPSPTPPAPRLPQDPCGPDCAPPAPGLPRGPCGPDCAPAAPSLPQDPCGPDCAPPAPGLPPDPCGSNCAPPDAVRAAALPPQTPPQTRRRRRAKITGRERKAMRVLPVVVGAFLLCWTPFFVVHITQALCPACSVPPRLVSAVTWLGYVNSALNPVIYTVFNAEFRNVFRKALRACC
# ASSAY INFO: Agonistic activity in G protein dependent pathway of dopamine D4 receptor (aequorin intracellular calcium luminescence, FDSS)
# Assay type: cell-based
# CONDITION INFO: read-out: Maximal activity on D4 receptor (%)
EXPERIMENTAL ENDPOINT: Emax
Field note: include the unit after the figure.

IN: Which Emax value is on record for Cc1ccc(CN2CCn3nc(-c4ncccc4C)cc3C2)cc1C#N ?
OUT: 77%

---
IN: Given the molecule Cc1cccnc1-c1cc2n(n1)CCN(Cc1cccc(CF)n1)C2 , what is its reported Emax?
OUT: 82%

IN: Returns the measured Emax for the input molecule. Input: Clc1c(-c2ccccn2)nn2c1CN(Cc1ccccc1)CC2
OUT: 63%

IN: Give the measured Emax of Cc1ccnc(CN2CCn3nc(-c4ccccn4)c(C)c3C2)c1 .
OUT: 56%

IN: Would you mind telling me what Emax value was observed for Cc1cccnc1-c1cc2n(n1)CCN(Cc1cc3ccccc3[nH]1)C2 ?
OUT: 52%

IN: Find the recorded Emax belonging to Cc1cccnc1-c1cc2n(n1)CCN(Cc1n[nH]c3cccc(C)c13)C2 and report it.
OUT: 54%
